Let's look at some compounds and their measured inhibition at 10 µM.
target: mGluR5 receptor (Sus scrofa); construct: 450 μg of protein from brain homogenate with 5 nM ^3[H]-MPEP; from tissue; host or cells: pig brain halves without medulla, cerebellum and pons; experiment: [3H]-MPEP mGluR5 receptor binding assay (pig brain homogenate); conditions: 10 μM compound, 5 nM [3H]-MPEP, read-out: % Inhibition of mGluR5 Receptor (pig) [^3H]-MPEP Bond at 10 μM
Write the value in % as a bare number.

These solved cases illustrate the format of a correct answer.
Problem: # input compound: `O=C(C1CCCCC1)N(Cc1cc(-c2ccc3ncnc(NC4CC4)c3c2)ccn1)C1CC1` ; wanted: its inhibition at 10 µM
Result: 58

Problem: # input compound: `Cc1cccc(CNc2ncnc3ccc(-c4cccc(CN(C5CC5)S(C)(=O)=O)c4)cc23)c1` ; wanted: its inhibition at 10 µM
Result: 46

Problem: # input compound: `CC(C)Nc1ncnc2ccc(-c3cccc(CN(Cc4ccccc4)C(=O)c4ccccc4)c3)cc12` ; wanted: its inhibition at 10 µM
Result: 42

Problem: # input compound: `CC(=O)N(CC#N)Cc1cccc(-c2ccc3ncnc(NC4CC4)c3c2)c1` ; wanted: its inhibition at 10 µM
Result: 40

Problem: # input compound: `CC(C)(C)Nc1ncnc2ccc(-c3ccc(F)c(CN(C(=O)c4ccc(C(F)(F)F)cc4F)C4CC4)c3)cc12` ; wanted: its inhibition at 10 µM
Result: 63

---
Problem: # input compound: `Cc1nc(NC2CC2)c2cc(-c3ccc(F)c(CN(C(=O)c4c(F)c(F)c(F)c(F)c4F)C4CC4)c3)ccc2n1` ; wanted: its inhibition at 10 µM
Result: 106

Problem: # input compound: `CCCC(=O)N(CCC)Cc1cccc(-c2ccc3ncnc(Nc4ccccc4)c3c2)c1` ; wanted: its inhibition at 10 µM
Result: 50

Problem: # input compound: `O=C(c1cccs1)N(Cc1cc(-c2ccc3ncnc(NC4CC4)c3c2)ccc1Cl)C1CC1` ; wanted: its inhibition at 10 µM
Result: 95

----------
biological target: mGluR5 receptor (Sus scrofa, UniProt I3LUI7); construct: 450 μg of protein from brain homogenate with 5 nM ^3[H]-MPEP; from tissue; host or cells: pig brain halves without medulla, cerebellum and pons; test: [3H]-MPEP mGluR5 receptor binding assay (pig brain homogenate); conditions: 10 μM compound, 5 nM [3H]-MPEP
Sequence (I3LUI7 19-1212): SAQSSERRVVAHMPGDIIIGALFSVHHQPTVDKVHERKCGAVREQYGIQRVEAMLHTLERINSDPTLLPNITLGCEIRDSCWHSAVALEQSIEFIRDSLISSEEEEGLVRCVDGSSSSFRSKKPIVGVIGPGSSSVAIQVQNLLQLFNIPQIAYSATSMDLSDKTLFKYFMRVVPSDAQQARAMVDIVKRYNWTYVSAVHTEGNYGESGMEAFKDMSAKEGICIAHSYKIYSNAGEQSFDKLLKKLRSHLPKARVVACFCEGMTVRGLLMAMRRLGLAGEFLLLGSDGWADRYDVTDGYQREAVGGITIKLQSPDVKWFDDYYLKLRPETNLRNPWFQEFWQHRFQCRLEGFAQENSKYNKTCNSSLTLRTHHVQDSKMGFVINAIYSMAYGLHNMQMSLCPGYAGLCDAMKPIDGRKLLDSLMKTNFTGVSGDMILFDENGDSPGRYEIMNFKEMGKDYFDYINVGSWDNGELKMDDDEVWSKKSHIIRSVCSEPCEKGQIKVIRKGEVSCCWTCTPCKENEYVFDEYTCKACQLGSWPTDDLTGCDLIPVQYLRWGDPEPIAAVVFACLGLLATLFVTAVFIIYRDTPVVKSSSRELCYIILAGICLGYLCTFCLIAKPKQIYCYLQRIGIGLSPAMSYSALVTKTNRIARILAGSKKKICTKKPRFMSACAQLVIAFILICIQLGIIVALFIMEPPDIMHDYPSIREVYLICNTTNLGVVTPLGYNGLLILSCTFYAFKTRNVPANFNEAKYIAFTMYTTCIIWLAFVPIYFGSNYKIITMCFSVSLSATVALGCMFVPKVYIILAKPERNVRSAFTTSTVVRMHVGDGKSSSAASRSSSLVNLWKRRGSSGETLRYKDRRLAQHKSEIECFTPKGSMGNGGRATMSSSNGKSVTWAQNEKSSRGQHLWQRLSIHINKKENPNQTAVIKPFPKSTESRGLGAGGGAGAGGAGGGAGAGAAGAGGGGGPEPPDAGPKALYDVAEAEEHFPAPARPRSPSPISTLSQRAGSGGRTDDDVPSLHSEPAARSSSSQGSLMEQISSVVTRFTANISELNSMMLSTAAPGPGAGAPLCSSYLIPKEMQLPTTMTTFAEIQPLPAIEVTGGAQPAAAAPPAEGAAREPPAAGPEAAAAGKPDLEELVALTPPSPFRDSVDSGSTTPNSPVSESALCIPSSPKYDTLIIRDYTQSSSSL
Decision: % Inhibition of mGluR5 Receptor (pig) [^3H]-MPEP Bond at 10 μM beneath 80% gives condition met; % Inhibition of mGluR5 Receptor (pig) [^3H]-MPEP Bond at 10 μM meeting or exceeding 80% gives condition not met.

Problem: is_below(% Inhibition of mGluR5 Receptor (pig) [^3H]-MPEP Bond at 10 μM, 80%) for `O=S(=O)(c1c(F)c(F)c(F)c(F)c1F)N(Cc1cc(-c2ccc3ncnc(NC4CC4)c3c2)ccc1Cl)C1CC1` ?
Result: condition not met

Problem: is_below(% Inhibition of mGluR5 Receptor (pig) [^3H]-MPEP Bond at 10 μM, 80%) for `O=C(c1ccno1)N(Cc1cc(-c2ccc3ncnc(NC4CC4)c3c2)ccc1Cl)C1CC1` ?
Result: condition not met

Problem: is_below(% Inhibition of mGluR5 Receptor (pig) [^3H]-MPEP Bond at 10 μM, 80%) for `CNc1ncnc2ccc(-c3cccc(CN(c4ccccc4F)S(=O)(=O)c4ccccc4)c3)cc12` ?
Result: condition met

Problem: is_below(% Inhibition of mGluR5 Receptor (pig) [^3H]-MPEP Bond at 10 μM, 80%) for `CC(C)(C)Nc1ncnc2ccc(-c3ccc(F)c(CN(C4CC4)S(=O)(=O)Cc4ccccc4)c3)cc12` ?
Result: condition met

Problem: is_below(% Inhibition of mGluR5 Receptor (pig) [^3H]-MPEP Bond at 10 μM, 80%) for `O=S(=O)(c1ccc(Cl)cc1Cl)N(Cc1cc(-c2ccc3ncnc(NC4CC4)c3c2)ccc1F)C1CC1` ?
Result: condition met

---
Problem: is_below(% Inhibition of mGluR5 Receptor (pig) [^3H]-MPEP Bond at 10 μM, 80%) for `O=S(=O)(c1ccccc1)N(Cc1cc(-c2ccc3ncnc(NC4CC4)c3c2)ccc1F)C1CC1` ?
Result: condition not met

Problem: is_below(% Inhibition of mGluR5 Receptor (pig) [^3H]-MPEP Bond at 10 μM, 80%) for `COc1ccc(S(=O)(=O)N(Cc2cc(-c3ccc4ncnc(NC5CC5)c4c3)ccn2)C2CC2)cc1` ?
Result: condition not met

Problem: is_below(% Inhibition of mGluR5 Receptor (pig) [^3H]-MPEP Bond at 10 μM, 80%) for `COc1ccc(S(=O)(=O)N(Cc2cc(-c3ccc4ncnc(NC5CC5)c4c3)ccc2F)C2CC2)cc1` ?
Result: condition met

Problem: is_below(% Inhibition of mGluR5 Receptor (pig) [^3H]-MPEP Bond at 10 μM, 80%) for `CC(C)(C)Nc1ncnc2ccc(-c3ccc(F)c(CN(C(=O)c4ccccn4)C4CC4)c3)cc12` ?
Result: condition not met

Problem: is_below(% Inhibition of mGluR5 Receptor (pig) [^3H]-MPEP Bond at 10 μM, 80%) for `CC(=O)N(Cc1cc(-c2ccc3ncnc(NC(C)(C)C)c3c2)ccc1F)C1CC1` ?
Result: condition not met

Problem: is_below(% Inhibition of mGluR5 Receptor (pig) [^3H]-MPEP Bond at 10 μM, 80%) for `O=C(c1ccncc1)N(Cc1cc(-c2ccc3ncnc(NC4CC4)c3c2)ccc1Cl)C1CC1` ?
Result: condition not met

Problem: is_below(% Inhibition of mGluR5 Receptor (pig) [^3H]-MPEP Bond at 10 μM, 80%) for `CS(=O)(=O)N(Cc1cc(-c2ccc3ncnc(NC4CC4)c3c2)ccc1Cl)C1CC1` ?
Result: condition not met

Problem: is_below(% Inhibition of mGluR5 Receptor (pig) [^3H]-MPEP Bond at 10 μM, 80%) for `O=S(=O)(c1cccc(C(F)(F)F)c1)N(Cc1cc(-c2ccc3ncnc(NC4CC4)c3c2)ccn1)C1CC1` ?
Result: condition not met

Problem: is_below(% Inhibition of mGluR5 Receptor (pig) [^3H]-MPEP Bond at 10 μM, 80%) for `Cc1cc2ncnc(NC3CC3)c2cc1-c1cccc(CN(C2CC2)S(=O)(=O)c2c(F)c(F)c(F)c(F)c2F)c1` ?
Result: condition met

Problem: is_below(% Inhibition of mGluR5 Receptor (pig) [^3H]-MPEP Bond at 10 μM, 80%) for `CC(C)(C)Nc1ncnc2ccc(-c3ccc(F)c(CN(C(=O)c4ccncc4)C4CC4)c3)cc12` ?
Result: condition not met

Problem: is_below(% Inhibition of mGluR5 Receptor (pig) [^3H]-MPEP Bond at 10 μM, 80%) for `CC(C)(C)Nc1ncnc2ccc(-c3ccc(F)c(CN(C4CC4)S(=O)(=O)c4ccc(Cl)cc4Cl)c3)cc12` ?
Result: condition met

Problem: is_below(% Inhibition of mGluR5 Receptor (pig) [^3H]-MPEP Bond at 10 μM, 80%) for `CC(C)S(=O)(=O)N(Cc1cc(-c2ccc3ncnc(NC(C)(C)C)c3c2)ccc1F)C1CC1` ?
Result: condition not met

----------
target: mGluR5 receptor (Sus scrofa); construct: 450 μg of protein from brain homogenate with 5 nM ^3[H]-MPEP; from tissue; host or cells: pig brain halves without medulla, cerebellum and pons; assay: [3H]-MPEP mGluR5 receptor binding assay (pig brain homogenate); conditions: 10 μM compound, 5 nM [3H]-MPEP, read-out: % Inhibition of mGluR5 Receptor (pig) [^3H]-MPEP Bond at 10 μM
Counter-ions that a name gives are not always drawn.
# binarize inhibition at 10 µM: threshold 50% inclusive, high side label 1, low side label 0

Solved cases (3 shown):
Problem: Form field: inhibition at 10 µM at least 50%? Entry: `COCCN(Cc1cccc(-c2ccc3ncnc(NC4CC4)c3c2)c1)C(C)=O`
Result: label 0

Problem: Form field: inhibition at 10 µM at least 50%? Entry: COCCNc1ncnc2ccc(-c3cccc(CN4C(=O)CCC4=O)c3)cc12 [Example 867, hydrochloride]
Result: label 1

Problem: Form field: inhibition at 10 µM at least 50%? Entry: `O=C(c1ccc(Cl)nc1)N(Cc1cccc(-c2ccc3ncnc(NC4CC4)c3c2)c1)C1CC1`
Result: label 1

---
Problem: Form field: inhibition at 10 µM at least 50%? Entry: `CN(Cc1cccc(-c2ccc3ncnc(NC4CC4)c3c2)c1)c1ccccn1`
Result: label 1

Problem: Form field: inhibition at 10 µM at least 50%? Entry: `Cc1nc(NC2CC2)c2cc(-c3cccc(CN(C(=O)c4ccccc4C(F)(F)F)C4CC4)c3)ccc2n1`
Result: label 0

Problem: Form field: inhibition at 10 µM at least 50%? Entry: `O=C1C=CC(=O)N1Cc1cc(-c2ccc3ncnc(NC4CC4)c3c2)ccc1F`
Result: label 0

Problem: Form field: inhibition at 10 µM at least 50%? Entry: `CC(C)CN(Cc1cccc(-c2ccc3ncnc(N4CCOCC4)c3c2)c1)C(=O)CN(C)C`
Result: label 0
